B1: ZNF263 (parent)
chain: RTHTGEKPYKCTLCGENFSHRSNL

# Variants of: B1
# experimentSummary: protein stability index of a GFP-peptide fusion (GPS, HEK-293T) (PSI 1-6); higher = more stable;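 further: lentivirally expressed fusions sorted by FACS into six bins by GFP to DsRed ratio, PSI derived from sequencing read proportions per bin multiplied by bin number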
# measurementContext: c terminus: a fixed tail appended
Entry flag: fulfilled if protein stability index reaches 2; not fulfilled if it does not.

Some entries whose results are on file:
[
  {
    "mutationId": "N17F",
    "answerLabel": "fulfilled"
  },
  {
    "mutationId": "S22H",
    "answerLabel": "fulfilled"
  },
  {
    "mutationId": "E16K",
    "answerLabel": "not fulfilled"
  },
  {
    "mutationId": "K7S",
    "answerLabel": "fulfilled"
  }
]

Would you say P8M shows protein stability index at minimum 2? fulfilled

Determine whether measured protein stability index meets or exceeds 2 for Y9S fulfilled

Does protein stability index meet or surpass 2 for S22T ? not fulfilled

Has T12S a recorded protein stability index greater than or equal to 2? not fulfilled

In plain terms: is recorded protein stability index at least 2 for L13A ? fulfilled
